# System: PC-3
# experimental.protocol: NCI tumour cell line growth inhibition, 48 h
The source made the active and inactive calls. Cut-off read from the data, not from the text of the source: active = GI50 up to about 1.1 µM and inactive = higher.
Outcome (select one): 1.0 (active), 0.0 (inactive)

Completed entries (count: 5):
| compound | assayed.system | category.label |
| --- | --- | --- |
| CCOC(=O)c1cn(CC)c(=O)n2c1nc1ccccc12 | PC-3 | 0.0 |
| C=C(Cl)C(Cl)(CBr)CCCC(C)C (stereo unspecified) | PC-3 | 0.0 |
| O=C1CCCC2=C1CC1=C(CCCC1=O)N2c1cccc2ccccc12 | PC-3 | 0.0 |
| CSc1nc(NC2OC(COC(C)=O)C(OC(C)=O)C(OC(C)=O)C2OC(C)=O)c(/N=C\C=N/c2c(NC3OC(COC(C)=O)C(OC(C)=O)C(OC(C)=O)C3OC(C)=O)nc(SC)n(C)c2=O)c(=O)n1C (stereo unspecified) | PC-3 | 0.0 |
| C[C@H]1CC[C@@]2(OC1)O[C@H]1C[C@H]3[C@@H]4CC[C@@H]5C[C@@H](OC6OC(CO)C(O)C(O)C6OC6OC(CO)C(O)C(O)C6O)CC[C@]5(C)[C@H]4CC[C@]3(C)[C@H]1[C@@H]2C (stereo partly specified) | PC-3 | 0.0 |

// query Test call for this compound, please: CCCCCc1c(CCCC)c(=O)[nH]c2cc(CNCC(OC)OC)ccc12
// result 0.0

// query Test call for this compound, please: O=C1CC[N+]2=Cc3ccccc3O[B-]2(c2ccccc2)O1 (stereo unspecified)
// result 0.0

// query Test call for this compound, please: C=C(C(=O)O[C@H]1C/C(C)=C/CC/C(CO)=C/[C@H]2C(=O)OC(=C)[C@H]12)C(O)CO (stereo partly specified)
// result 0.0

// query Test call for this compound, please: Cc1ccc(-c2c(C#N)c(-c3ccccc3)c(C#N)c(=O)n2NS(=O)(=O)c2ccc(C)cc2)cc1
// result 0.0

// query Test call for this compound, please: Cc1ccc2c(=O)cc(-c3cccc(F)c3)[nH]c2n1
// result 1.0

// query Test call for this compound, please: CC(C)N1CSC(=S)N(Cc2ccccc2)C1
// result 0.0

// query Test call for this compound, please: CC(=O)O[C@H]1C(=O)[C@@]2(C)[C@H]([C@H](OC(=O)c3cccc(C(F)(F)F)c3)[C@]3(O)C[C@H](OC(=O)[C@H](O)[C@@H](NC(=O)c4ccccc4)c4ccccc4)C(C)=C1C3(C)C)[C@]1(OC(C)=O)CO[C@@H]1C[C@@H]2O
// result 1.0

// query Test call for this compound, please: CCCN1C(=O)/C(=C\c2ccc(OC)c(OC)c2)S/C1=N\c1ccccc1
// result 0.0

// query Test call for this compound, please: C=C1CC[C@@]2(OC1)OC1C[C@H]3[C@@H]4CC=C5C[C@@H](O)CC(OC6OCC(OC(=O)[C@@H](O)[C@@H](C)CC)C(OC(C)=O)C6OC6OC(C)C(O)C(O)C6O)[C@]5(C)[C@H]4CC[C@]3(C)C1[C@@H]2C (stereo partly specified)
// result 0.0

// query Test call for this compound, please: O=C1C(=O)N(c2cccc(C(F)(F)F)c2)C(=O)C(=O)C1c1nc2ccccc2s1
// result 0.0

// query Test call for this compound, please: FC(F)(F)c1nc2ccc(SSc3ccc4nc(C(F)(F)F)[nH]c4c3)cc2[nH]1
// result 0.0
